The measured values listed here are drawn from patent US7112680B2.

# System: Burkitt's lymphoma (CA 46, ATCC No. CRL 1648)
# Experimental Details: Inhibition of tumor cell growth, MTT-assay, Burkitt's lymphoma
# Format: cell-based, human
# Condition Parameters: Table 1, 72 hours, read-out: IC50 Burkitts
Measured Endpoint: IC50 (µM)

Before answering, review these 5 worked examples.
Looking up CCCC(=NNc1nc2ccccc2n1C)c1ccccn1 , I found its IC50 recorded as 1.78

Looking up CC(=NNc1nc2ccccc2o1)c1ccccn1 , I found its IC50 recorded as 0.009

Looking up C(=NNc1nc2ccccc2o1)c1ccccn1 , I found its IC50 recorded as 0.005

Looking up Cn1c(NN=Cc2ccccn2)nc2ccccc21 , I found its IC50 recorded as 0.03

Looking up CC(=NNc1nc2ccccc2n1C)c1ccccn1 , I found its IC50 recorded as 0.0043

(a) C(=NNc1nc2ccccc2[nH]1)c1ccccn1
(b) CCC(=NNc1nc2ccccc2n1C)c1ccccn1
INPUT: Higher IC50 between a and b ? In your reply, give the label of the chosen option.
OUTPUT: b

----------
# System: K562 (chronic myelogenous leukemia)
# Experimental Details: Inhibition of tumor cell growth, K562
# Assay type: cell-based, human
# Condition Parameters: Table 3; 72 hours
# Text: […]
Measured Endpoint: IC50 (nM)

Before answering, review these 2 worked examples.
Looking up CC(=NNc1nc2ccccc2n1Cc1ccccc1)c1ccccn1 , I found its IC50 recorded as 450

Looking up CC(=NNc1nc2ccccc2n1C1CC1)c1ccccn1 , I found its IC50 recorded as 90

(I) C=CCn1c(NN=C(C)c2ccccn2)nc2ccccc21
(II) CC(=NNc1nc2ccccc2n1C(C)C)c1ccccn1
(III) CCCn1c(NN=C(C)c2ccccn2)nc2ccccc21
INPUT: Order the records, beginning with the lowest IC50 and ending with the highest. Response format: the labels, sorted as the prompt asks.
OUTPUT: III, I, II
(III: 120 nM, I: 180 nM, II: 330 nM)

----------
# Test system: CCRF-CEM (acute lymphoblastic leukemia)
# Experimental Details: Inhibition of tumor cell growth, MTT-assay, CCRF-CEM
# Format: cell-based, human
# Condition Parameters: Homo sapiens, CCRF-CEM, Table 2, 72 hours
Measured Endpoint: IC50 (µM)
Numeric answer only, unit µM assumed.

Looking up CC(=NNc1nc2ccccc2[nH]1)c1ccncn1 , I found its IC50 recorded as 0.41

----------
# Test system: HT-29 (colon adenocarcinoma)
# Experimental Details: Inhibition of tumor cell growth, SRB-assay, HT-29
# Type: cell-based, human
# Condition Parameters: Table 2, 72 hours, read-out: IC50 HT-29 (converted)
Measured Endpoint: IC50 (nM)

Looking up CC(=NNc1nc2ccccc2[nH]1)c1cccnn1 [Ib-1] , I found its IC50 recorded as 2060

Looking up CC(=NNc1nc2ccccc2o1)c1nccc2ccccc12 [Ib-21] , I found its IC50 recorded as 1930

Looking up CC(=NNc1nc2ccccc2o1)c1cnc(C)cn1 [Ib-17] , I found its IC50 recorded as 280

(P) CC(=NNc1nc2ccccc2o1)c1nccnc1C [Ib-15]
(Q) CC(=NNc1nc2ccccc2[nH]1)c1cnc(C)cn1 [Ib-16]
(R) CC(=NNc1nc2ccccc2[nH]1)c1ncccn1 [Ib-25]
(S) CC(=NNc1nc2ccccc2o1)c1ccc2ccccc2n1 [Ib-19]
(T) CC(=NNc1nc2ccccc2o1)c1cc(C)ncn1 [Ib-10]
INPUT: Order the records, beginning with the lowest IC50 and ending with the highest. Response format: the labels, sorted as the prompt asks.
OUTPUT: T, R, Q, P, S
(T: 120 nM, R: 420 nM, Q: 880 nM, P: 2150 nM, S: 7760 nM)

----------
# System: Burkitt's lymphoma (CA 46, ATCC No. CRL 1648)
# Experimental Details: Inhibition of tumor cell growth, MTT-assay, Burkitt's lymphoma
# Assay type: cell-based, human
# Condition Parameters: Table 2, 72 hours, read-out: IC50 Burkitts
pIC50: −log10 of the molar value.
Measured Endpoint: pIC50

Looking up CC(=NNc1nc2ccccc2[nH]1)c1cnccn1 [Ib-11] , I found its pIC50 recorded as 5.88

Looking up CC(=NNc1nc2ccccc2o1)c1nccnc1C [Ib-15] , I found its pIC50 recorded as 6.04

Looking up CC(=NNc1nc2ccccc2[nH]1)c1ncccn1 [Ib-25] , I found its pIC50 recorded as 6.66

(P) CC(=NNc1nc2ccccc2[nH]1)c1cccnn1 [Ib-1]
(Q) CC(=NNc1nc2ccccc2[nH]1)c1nccnc1C [Ib-14]
INPUT: Of P versus Q , which is the one with smaller reported pIC50? In your reply, give the label of the chosen option.
OUTPUT: Q
(Q: 5.47, P: 6.08)

(I) CC(=NNc1nc2ccccc2o1)c1ccc(C)nn1 [Ib-5]
(II) CC(=NNc1nc2ccccc2o1)c1ccc2ccccc2n1 [Ib-19]
(III) CC(=NNc1nc2ccccc2o1)c1cc2ccccc2cn1 [Ib-24]
INPUT: Order the records by pIC50, with each subsequent value no larger than the one before. Response format: the labels, sorted as the prompt asks.
OUTPUT: III, I, II

(1) CC(=NNc1nc2ccccc2o1)c1cccnn1 [Ib-3]
(2) CC(=NNc1nc2ccccc2o1)c1nccc2ccccc12 [Ib-21]
(3) CC(=NNc1nc2ccccc2[nH]1)c1cc(C)ncn1 [Ib-9]
(4) CC(=NNc1nc2ccccc2o1)c1cc(C)ncn1 [Ib-10]
INPUT: Order the records by pIC50, with each subsequent value no larger than the one before. Response format: the labels, sorted as the prompt asks.
OUTPUT: 4, 2, 3, 1

(a) CC(=NNc1nc2ccccc2o1)c1ccncn1 [Ib-8]
(b) CC(=NNc1nc2ccccc2[nH]1)c1cnc(C)cn1 [Ib-16]
(c) CC(=NNc1nc2ccccc2o1)c1ncccn1 [Ib-27]
INPUT: Order the records, beginning with the lowest pIC50 and ending with the highest. Response format: the labels, sorted as the prompt asks.
OUTPUT: b, a, c
(b: 5.91, a: 6.85, c: 7.52)

(a) CC(=NNc1nc2ccccc2[nH]1)c1ccc(C)nn1 [Ib-4]
(b) CC(=NNc1nc2ccccc2o1)c1cnc(C)cn1 [Ib-17]
INPUT: Of a versus b , which is the one with smaller reported pIC50? In your reply, give the label of the chosen option.
OUTPUT: a
(a: 5.73, b: 6.82)

----------
# System: KB-HU hydroxyurea-resistant cells
# Experimental Details: Inhibition of tumor cell growth, SRB-assay, KB-HU
# Format: cell-based, human
# Condition Parameters: Homo sapiens, Table 1, 72 hours, read-out: IC50 KB-HU
Measured Endpoint: pIC50
pIC50 here is simply -log10 of the concentration when that concentration is written in mol/L.

Looking up CC(=NNc1nc2ccccc2[nH]1)c1ccccn1 , I found its pIC50 recorded as 6.05

----------
# Test system: HeLa (epitheloid cervix carcinoma)
# Experimental Details: Inhibition of tumor cell growth, SRB-assay, HeLa
# Type: cell-based, human
# Condition Parameters: Table 4, 72 hours, read-out: In vitro-activity against human tumor cell lines, HeLa
pIC50: −log10 of the molar value.
Measured Endpoint: pIC50

Looking up CC(=NNc1nc2ccccc2n1C)c1cccc(Br)n1 [Id-6] , I found its pIC50 recorded as 5.49

(P) CC(=NNc1nc2ccccc2n1C)c1cccc(Cl)n1 [Id-5]
(Q) CC(=NNc1nc2ccccc2n1C)c1ncccc1-c1ccccc1 [Id-14]
INPUT: Of P versus Q , which is the one with smaller reported pIC50? In your reply, give the label of the chosen option.
OUTPUT: P
(P: 6.72, Q: 7.15)

(A) CC(=NNc1nc2ccccc2n1C)c1ncccc1N(C)C [Id-11]
(B) CC(=NNc1nc2ccccc2n1C)c1cc(-c2ccccc2)ccn1 [Id-15]
(C) CC(=NNc1nc2ccccc2n1C)c1cccc(N(C)C)n1 [Id-13]
INPUT: Order the records, beginning with the lowest pIC50 and ending with the highest. Response format: the labels, sorted as the prompt asks.
OUTPUT: C, B, A
(C: 5.18, B: 7.40, A: 7.70)

(P) COc1ccnc(C(C)=NNc2nc3ccccc3n2C)c1 [Id-2]
(Q) CC(=NNc1nc2ccccc2n1C)c1cc(N(C)C)ccn1 [Id-12]
(R) CC(=NNc1nc2ccccc2n1C)c1ncccc1Cl [Id-3]
INPUT: Order the records, beginning with the lowest pIC50 and ending with the highest. Response format: the labels, sorted as the prompt asks.
OUTPUT: Q, R, P
(Q: 5.43, R: 6.60, P: 7.30)

(1) CC(=NNc1nc2ccccc2n1C)c1cccc(C)n1 [Id-10]
(2) CC(=NNc1nc2ccccc2n1C)c1ccc(-c2ccccc2)cn1 [Id-16]
INPUT: Higher pIC50 between 1 and 2 ? In your reply, give the label of the chosen option.
OUTPUT: 2

----------
# Test system: KB-HU hydroxyurea-resistant cells
# Experimental Details: Inhibition of tumor cell growth, SRB-assay, KB-HU
# Type: cell-based, human
# Condition Parameters: Table 4, 72 hours, read-out: In vitro-activity against human tumor cell lines, KB-HU
Measured Endpoint: IC50 (nM)

Before answering, review these 6 worked examples.
Looking up CC(=NNc1nc2ccccc2n1C)c1cccc(N(C)C)n1 , I found its IC50 recorded as 4900

Looking up CC(=NNc1nc2ccccc2n1C)c1cc(-c2ccccc2)ccn1 , I found its IC50 recorded as 120

Looking up CC(=NNc1nc2ccccc2n1C)c1ncccc1N(C)C , I found its IC50 recorded as 240

Looking up CC(=NNc1nc2ccccc2n1C)c1ncccc1-c1ccccc1 , I found its IC50 recorded as 700

Looking up CC(=NNc1nc2ccccc2n1C)c1cccc(Br)n1 , I found its IC50 recorded as 3890

Looking up CC(=NNc1nc2ccccc2n1C)c1ccc(-c2ccccc2)cn1 , I found its IC50 recorded as 190

(P) CC(=NNc1nc2ccccc2n1C)c1cc(C)ccn1
(Q) CC(=NNc1nc2ccccc2n1C)c1ncccc1Cl
(R) COc1ccnc(C(C)=NNc2nc3ccccc3n2C)c1
INPUT: Order the records by IC50, with each subsequent value no larger than the one before. Response format: the labels, sorted as the prompt asks.
OUTPUT: Q, R, P

(A) CC(=NNc1nc2ccccc2n1C)c1cccc(Cl)n1
(B) CC(=NNc1nc2ccccc2n1C)c1ncccc1C
INPUT: Higher IC50 between A and B ? In your reply, give the label of the chosen option.
OUTPUT: B

(P) CC(=NNc1nc2ccccc2n1C)c1cc(N(C)C)ccn1
(Q) CC(=NNc1nc2ccccc2n1C)c1cccc(C)n1
INPUT: Higher IC50 between P and Q ? In your reply, give the label of the chosen option.
OUTPUT: Q
(Q: 2230 nM, P: 50 nM)
